Where these numbers come from: ChEMBL document CHEMBL5058564

System: U2OS
Assay: Incucyte cell viability with U2OS; note: unitless GR value; below 1 slowed growth and below 0 cell loss
Format: toxicity, cell-based
Conditions: human, 24 h, 10 µM, compound concentration 10 uM, replicate number 2, timepoint 24 hours
Entries and their Growth Rate values follow.
Please give the numeric answer without any surrounding text.

Lab note: measured Growth Rate of CCCCCCCCCCCCC/C=C/[C@@H](O)[C@@H](N)COP(=O)([O-])OCC[N+](C)(C)C [SPHINGOSYLPHOSPHORYLCHLOLINE] was 0.88

So, `O=C1NC(=Nc2c(Cl)cccc2Cl)S/C1=C\c1ccc2nccnc2c1` ? Its Growth Rate was 0.59

Reported Growth Rate ( CCCCCC(O)/C=C/[C@H]1C(=O)CC(O)C1C/C=C\CCCC(=O)O (stereo partly drawn) ) = 0.87

Record CC(=O)O[C@H]1C(=O)[C@@]2(C)[C@H]([C@H](OC(=O)c3ccccc3)[C@]3(O)C[C@H](OC(=O)[C@H](O)[C@@H](NC(=O)c4ccccc4)c4ccccc4)C(C)=C1C3(C)C)[C@]1(OC(C)=O)CO[C@@H]1C[C@@H]2O [PACLITAXEL] . Reported Growth Rate: -0.09

Noted for COC(=O)Nc1nc2ccc(C(=O)c3cccs3)cc2[nH]1 [NOCODAZOLE] : its Growth Rate reads -0.35

* * *

Each item that follows carries a reported Growth Rate.
Tested on: HEK-293T
Assay: Incucyte cell viability with HEK293T; note: unitless GR value; below 1 slowed growth and below 0 cell loss
Format: toxicity, cell-based
Conditions: human, 0 h, 10 µM, compound concentration 10 uM, replicate number 1, timepoint 0 hours
Give a plain numeric answer without units written out.

Solved entries:
| COMPOUND | MEASURED TARGET | Growth Rate |
| --- | --- | --- |
| CN1C[C@H](C(=O)N[C@]2(C)O[C@@]3(O)[C@@H]4CCCN4C(=O)[C@H](Cc4ccccc4)N3C2=O)C[C@@H]2c3cccc4[nH]cc(c34)C[C@H]21.CS(=O)(=O)O [DIHYDROERGOTAMINE MESYLATE] | HEK-293T | -0.57 |
| CCCCOCCOc1nc(-c2ccc(C(=O)O)c(F)c2)sc1C | HEK-293T | 0.61 |
| O=C1Nc2ccc(I)cc2/C1=C/c1cc(Br)c(O)c(Br)c1 | HEK-293T | -0.08 |
| O=C(O)c1cc2ccccc2c(Cc2c(O)c(C(=O)O)cc3ccccc23)c1O | HEK-293T | 0.69 |
| CCCCC1=NC2(CCCC2)C(=O)N1Cc1ccc(-c2ccccc2-c2nnn[nH]2)cc1 | HEK-293T | 0.8 |
| COC(=O)[C@H](CCCNC(=N)N)NC(=O)CCCc1c(-c2ccccc2)[nH]c2c(F)cc(F)cc12.O=C(O)C(F)(F)F | HEK-293T | 0.87 |

Attention now turns to another entry.
Memo: `O=C(O)c1ccccc1S(=O)(=O)NCCCCN1C(=O)c2cccc3cccc(c23)C1=O` , reported Growth Rate: 0.54

* * *

Tested on: HEK-293T
Assay: Incucyte cell viability with HEK293T; note: unitless GR value; below 1 slowed growth and below 0 cell loss
Format: toxicity, cell-based
Settings: human, 18 h, 10 µM, compound concentration 10 uM, replicate number 1, timepoint 18 hours
Reported Growth Rate values follow for various compounds
API note: the answer field is a bare number with no unit suffix.

// field: Growth Rate; key: `CCNC(=O)c1cc2c(-c3cc(C(C)(C)O)ccc3Oc3c(C)cc(F)cc3C)cn(C)c(=O)c2[nH]1` ; value = 0.82
